molecular target: other protein kinases (each individual kinase); assay: Standardized radiometric kinase assays, IC50 over 10 drug concentrations; format: biochemical; conditions: Rsk1(h); estimated
property: pIC50
Keep in mind that pIC50 stands for -log10 of concentration in molar terms.

Prompt: Please look up its pIC50: Clc1ccccc1Nc1nc2c(-c3nnc[nH]3)cccc2c2cnccc12 [A]
Completion: 7.39

* * *

biological target: recombinant human PIM1 (Homo sapiens (Human), UniProt P11309); assay: PIM-1 kinase activity in cell-free in vitro assay; format: biochemical; conditions: Table 45
Sequence (P11309 whole entry): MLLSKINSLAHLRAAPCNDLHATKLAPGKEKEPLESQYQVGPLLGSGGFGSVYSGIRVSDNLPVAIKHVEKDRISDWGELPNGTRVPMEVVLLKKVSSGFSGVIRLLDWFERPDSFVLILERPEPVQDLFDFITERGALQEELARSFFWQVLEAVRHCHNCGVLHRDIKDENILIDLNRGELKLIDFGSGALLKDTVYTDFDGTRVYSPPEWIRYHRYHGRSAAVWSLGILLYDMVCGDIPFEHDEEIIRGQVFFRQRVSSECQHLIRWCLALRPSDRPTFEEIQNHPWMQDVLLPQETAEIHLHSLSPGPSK
property: IC50

Prompt: Please look up its IC50: "Fc1cccc(Nc2nc3c(-c4nnc[nH]4)cccc3c3cnccc23)c1"
Completion: < 100 nM

Prompt: How about this compound: "Clc1cccc(Nc2nc3c(-c4nnc[nH]4)cccc3c3cnccc23)c1"
Completion: < 100 nM

Prompt: How about this compound: "FC(F)(F)Oc1cccc(Nc2nc3c(-c4nnc[nH]4)cccc3c3cnccc23)c1"
Completion: < 500 nM

Prompt: How about this compound: "CONC(=O)c1cccc2c1nc(Nc1cccc(Cl)c1)c1ccncc12"
Completion: > 1100 nM

Prompt: How about this compound: "O=C(O)c1cc(F)cc2c1nc(Nc1cccc(Cl)c1)c1ccncc12"
Completion: > 1100 nM

Prompt: How about this compound: Fc1cc(-c2nnc[nH]2)c2nc(Nc3cccc(Cl)c3)c3ccncc3c2c1 [drawing 2259]
Completion: < 1000 nM

Prompt: How about this compound: "Fc1ccc(Nc2nc3c(-c4nc[nH]n4)cccc3c3cnccc23)c(F)c1"
Completion: < 100 nM

Prompt: How about this compound: "c1cc(-c2nc[nH]n2)c2nc(NC3CC3)c3ccncc3c2c1"
Completion: < 100 nM

Prompt: How about this compound: COC(=O)c1cccc2c1nc(Cl)c1ccncc12 [drawing 2270]
Completion: > 1100 nM

Prompt: How about this compound: "NS(=O)(=O)c1cccc(Nc2nc3c(-c4nc[nH]n4)cccc3c3cnccc23)c1"
Completion: < 100 nM

Prompt: How about this compound: "O=C(O)c1cc(F)cc2c1nc(Nc1cccc(Cl)c1)c1cnccc12"
Completion: > 1100 nM

Prompt: How about this compound: "NC(=O)c1cc(F)cc2c1nc(Nc1cccc(Cl)c1)c1ccncc12"
Completion: < 1000 nM

Prompt: How about this compound: "Fc1ccc(Nc2nc3c(-c4nc[nH]n4)cccc3c3cnccc23)cc1F"
Completion: < 100 nM

Prompt: How about this compound: "NC(=O)c1cccc2c1nc(Nc1cccc(Cl)c1)c1cnccc12"
Completion: < 500 nM

Prompt: How about this compound: "CN(c1ccccc1Cl)c1nc2c(-c3nnc[nH]3)cccc2c2cnccc12"
Completion: < 100 nM

Prompt: How about this compound: "COc1cccc(CNc2nc3c(-c4nc[nH]n4)cccc3c3cnccc23)c1"
Completion: < 100 nM

Prompt: How about this compound: CCN1CCCC1CNc1nc2c(-c3nc[nH]n3)cccc2c2cnccc12 (stereo not shown)
Completion: > 1100 nM

Prompt: How about this compound: "c1cncc(CNc2nc3c(-c4nc[nH]n4)cccc3c3cnccc23)c1"
Completion: < 500 nM

Prompt: How about this compound: "N#Cc1cccc2c1nc(Nc1cccc(Cl)c1)c1ccncc12"
Completion: > 1100 nM

Prompt: How about this compound: "COc1ccccc1Nc1nc2c(-c3nnc[nH]3)cccc2c2cnccc12"
Completion: < 100 nM

Prompt: How about this compound: "Fc1cccc(F)c1Nc1nc2c(-c3nnc[nH]3)cccc2c2cnccc12"
Completion: < 100 nM

Prompt: How about this compound: "COC(=O)c1cccc2c1nc(Nc1cccc(Cl)c1)c1ccncc12"
Completion: > 1100 nM
